System: MDA-MB-231
Assay: cells
Conditions: Homo sapiens, MDA-MB-231, 72 h
Description: Cytotoxicity against human MDA-MB-231 cells after 3 days by MTT assay
measurement-name: IC50 (µM)
The reply should contain only the number, in µM.

Examples from the recorded data:
CCCCCCC(O)C(O)CCCCCC[C@@H](O)[C@H]1CC[C@H]([C@H](O)CCCCCCCCCCCCC2=C[C@H](C)OC2=O)O1 (some centres undefined) : 17
CCCCCCCCCC[C@H](O)[C@@H](O)CC[C@H](O)[C@@H](O)CC[C@@H](O)[C@H]1CC[C@H](CCCCCCCCCC2=C[C@H](C)OC2=O)O1 : 0.28
CCCCCCCCCC[C@@H](O)[C@H]1CC[C@H]([C@H](O)CCCCCC(O)CCCCCCCCC2=C[C@H](C)OC2=O)O1 (some centres undefined) : 18.1

Now for the compound whose IC50 we want.
Sample CCCCCCCCCCCC[C@H](O)[C@@H](O)CCCC[C@@H](O)[C@H]1CC[C@H](CCCCCCCC(O)CC2=C[C@H](C)OC2=O)O1 (some centres undefined) , system: MDA-MB-231. Its IC50 is 14.5

---

Tested on: MDA-MB-231
Assay: cells
Conditions: Homo sapiens, MDA-MB-231, 72 h
measurement-name: IC50 (µM)
The reply should contain only the number, in µM.

CCCCCCC(O)CCC[C@H](O)[C@H]1CC[C@H]([C@H](O)CC[C@@H](O)[C@H](O)CCCCCCCCCCCCC2=C[C@H](C)OC2=O)O1 (stereo partly drawn) : 0.63

Sample CC(=O)O[C@H]1C(=O)[C@@]2(C)[C@H]([C@H](OC(=O)c3ccccc3)[C@]3(O)C[C@H](OC(=O)[C@H](O)[C@@H](NC(=O)c4ccccc4)c4ccccc4)C(C)=C1C3(C)C)[C@]1(OC(C)=O)CO[C@@H]1C[C@@H]2O , system: MDA-MB-231. Its IC50 is 0.0703

---

Tested on: HepG2
Assay: Cytotoxicity against human HepG2 cells after 3 days by MTT assay
Details: HepG2, 72 h
pIC50: −log10 of the molar value.
Classify as follows. Reported pIC50 greater than or equal to 7: class 1. Reported pIC50 below: class 0.

CCCCCCCCCCCC[C@H](O)[C@@H](O)CCCC[C@@H](O)[C@H]1CC[C@H](CCCCCCCC(O)CC2=C[C@H](C)OC2=O)O1 (stereo partly specified) : class 0
CCCCCCC(O)C(O)CCCCCC[C@@H](O)[C@H]1CC[C@H]([C@H](O)CCCCCCCCCCCCC2=C[C@H](C)OC2=O)O1 (stereo partly specified) : class 0
CCCCCCCCCC[C@@H](O)[C@H]1CC[C@H]([C@H](O)CCCCCC(O)CCCCCCCCC2=C[C@H](C)OC2=O)O1 (stereo partly specified) : class 0
CCCCCCCCCC[C@H](O)[C@@H](O)CC[C@H](O)[C@@H](O)CC[C@@H](O)[C@H]1CC[C@H](CCCCCCCCCC2=C[C@H](C)OC2=O)O1 : class 1

Prompt: Could you verify whether the entry CC(=O)O[C@H]1C(=O)[C@@]2(C)[C@H]([C@H](OC(=O)c3ccccc3)[C@]3(O)C[C@H](OC(=O)[C@H](O)[C@@H](NC(=O)c4ccccc4)c4ccccc4)C(C)=C1C3(C)C)[C@]1(OC(C)=O)CO[C@@H]1C[C@@H]2O shows pIC50 of no less than 7?
Response: class 1

Prompt: Could you verify whether the entry CCCCCCC(O)CCC[C@H](O)[C@H]1CC[C@H]([C@H](O)CC[C@@H](O)[C@H](O)CCCCCCCCCCCCC2=C[C@H](C)OC2=O)O1 (stereo partly specified) shows pIC50 of no less than 7?
Response: class 1
